# target_system: UniProt P21333
# test_summary: FITC-NLX-based FLNA screening assay (inhibition of FITC-naloxone binding to Bn-VAKGL on streptavidin plates)
# conditions_used: FLNA-binding compound 0.01 μM; 10 nM FITC-NLX; read-out: Percent Binding Inhibition
result_type: inhibition at 0.01 µM (%)
Express it in %; write the number only.

[
  {
    "compound": "O=[N+]([O-])c1ccc(S(=O)(=O)N2CCC3(CC2)NCCCO3)cc1",
    "inhibition at 0.01 µM [%]": 39.1
  },
  {
    "compound": "COc1ccc(S(=O)(=O)N2CCC3(CC2)NCCO3)cc1",
    "inhibition at 0.01 µM [%]": 42.3
  },
  {
    "compound": "CC1CCC(C(C)C)C(OCC(O)CN2CCN(CCN3CCCCC3)CC2)C1 (stereo not drawn)",
    "inhibition at 0.01 µM [%]": 40.8
  },
  {
    "compound": "CC1CN(CC(O)COC2CCCCC2)CC(C)O1 (stereo not drawn)",
    "inhibition at 0.01 µM [%]": 29.8
  },
  {
    "compound": "CC(=O)c1ccc(S(=O)(=O)N2CCC3(CC2)NCCS3)cc1",
    "inhibition at 0.01 µM [%]": 60.3
  },
  {
    "compound": "Cc1cccc(OCC(O)CN2CC(C)OC(C)C2)c1 (stereo not drawn)",
    "inhibition at 0.01 µM [%]": 35.6
  },
  {
    "compound": "COc1ccc(S(=O)(=O)N2CCOC23CCN(C(C)C)CC3)cc1 [Compound C0133M]",
    "inhibition at 0.01 µM [%]": 47.8
  },
  {
    "compound": "Cc1ccc(S(=O)(=O)N2CCOC23CCN(CC2CC2)CC3)cc1 [Compound C0134M]",
    "inhibition at 0.01 µM [%]": 55.7
  }
]

Next up:
Item COC(=O)c1ccc(S(=O)(=O)N2CCC3(CC2)OCCN3S(=O)(=O)c2ccc(C(=O)OC)cc2)cc1 : provide inhibition at 0.01 µM
32.2

---

This section presents compounds with their documented % DAMGO (1 μM) values.
# Tested on: mu opiate receptor (MOR)
# test_summary: MOR agonist activity using [35S]GTPγS binding assay in striatal membranes
# Assay type: biochemical
# conditions_used: Series C-2; 1 μM compound, relative to DAMGO
Give me the value, and tack the unit on after it.

Please review the following examples before continuing.
[
  {
    "compound": "CN1CCC2(CC1)NCC(=O)N2Cc1ccccc1 [Compound C0105M]",
    "% DAMGO (1 μM)": "88.8%"
  },
  {
    "compound": "CC(=O)c1ccc(S(=O)(=O)N2CC(CN(C)C)OC23CCN(C)CC3)cc1 (centres unmarked) [Compound C0108M]",
    "% DAMGO (1 μM)": "104.1%"
  },
  {
    "compound": "CC(=O)c1ccc(S(=O)(=O)N2CCOC23CCNCC3)cc1",
    "% DAMGO (1 μM)": "211.5%"
  },
  {
    "compound": "COc1ccc(S(=O)(=O)N2CCOC23CCN(C)CC3)cc1 [Compound C0088M]",
    "% DAMGO (1 μM)": "161.7%"
  }
]

For the next question, use this compound.
Quickly give me recorded % DAMGO (1 μM) for COc1ccc(S(=O)(=O)N2CCOC23CCCNC3)cc1 (centres unmarked) [Compound C0145M-3]
88.7%

---

Entries annotated with measured % DAMGO (1 μM)
# Tested on: mu opiate receptor (MOR)
# test_summary: MOR agonist activity using [35S]GTPγS binding assay in striatal membranes
# Type: biochemical
# conditions_used: 1 μM compound relative to DAMGO
A number alone suffices; assume %.

Check out these entries, answers already filled in.
[
  {
    "molecule": "CC1CCC(C(C)C)C(OCC(O)CN2CCCc3ccccc32)C1 (stereo not shown) [Compound A0068]",
    "target_system": "mu opiate receptor (MOR)",
    "% DAMGO (1 μM), %": 35.2
  },
  {
    "molecule": "CC1CN(CC(O)COc2ccc(Cl)cc2)CC(C)O1 (stereo not shown) [Compound A0047]",
    "target_system": "mu opiate receptor (MOR)",
    "% DAMGO (1 μM), %": 92.4
  },
  {
    "molecule": "CC1CCC(C(C)C)C(OCC(O)CN2CCCCCCC2)C1 (stereo not shown) [Compound A0014]",
    "target_system": "mu opiate receptor (MOR)",
    "% DAMGO (1 μM), %": 67.5
  }
]

Recall and state the measured % DAMGO (1 μM) for CN(C)c1cccc(OCC(O)CN2CCc3ccccc3C2)c1 (stereo not shown) [Compound A0050] .
68.6

Report % DAMGO (1 μM) for CC1CN(CC(O)COc2ccc(Br)c(F)c2)CC(C)O1 (stereo not shown) [Compound A0041]
102.8

---

# Tested on: mu opiate receptor (MOR)
# test_summary: MOR agonist activity using [35S]GTPγS binding assay in striatal membranes
# Assay type: biochemical
# conditions_used: Series B; 1 μM compound + 1 μM β-FNA
MOR agonist activity, percent [35S]GTPγS binding at the stated compound concentration overview
// note: answer is a bare numeric in %

Sample answers from the record:
[
  {
    "compound": "COc1ccc(C(=O)CC2c3c(cc4c(c3OC)OCO4)CC[N+]2(C)C)cc1C (stereo not drawn) [Compound B0021]",
    "target_system": "mu opiate receptor (MOR)",
    "recorded_value": 42.9
  },
  {
    "compound": "COc1ccccc1CC(=O)CC1c2c(cc3c(c2OC)OCO3)CC[N+]1(C)C (stereo not drawn) [Compound 5009]",
    "target_system": "mu opiate receptor (MOR)",
    "recorded_value": 87.5
  }
]

Give reported MOR agonist activity, percent [35S]GTPγS binding at the stated compound concentration value for COc1cc(F)ccc1C(=O)CC1c2c(cc3c(c2OC)OCO3)CC[N+]1(C)C (stereo not drawn) [Compound B0007]
64.5

Look up and state reported MOR agonist activity, percent [35S]GTPγS binding at the stated compound concentration for COc1c2c(cc3c1C(CC(=O)Cc1ccc(C#N)cc1)[N+](C)(C)CC3)OCO2 (stereo not drawn) [Compound B0012]
145.1

Recall and state the measured MOR agonist activity, percent [35S]GTPγS binding at the stated compound concentration for COc1c2c(cc3c1C(CC(=O)CCc1ccc(F)cc1)[N+](C)(C)CC3)OCO2 (stereo not drawn) [Compound B0018] .
45.6

Indicate the recorded MOR agonist activity, percent [35S]GTPγS binding at the stated compound concentration value for this compound: COc1ccc(CCCCC2c3c(cc4c(c3OC)OCO4)CC[N+]2(C)C)cc1 (stereo not drawn) [Compound B0056]
41.8

# return recorded MOR agonist activity, percent [35S]GTPγS binding at the stated compound concentration for entry COc1ccccc1C(=O)CC1c2c(cc3c(c2OC)OCO3)CC[N+]1(C)C (stereo not drawn) [Compound B0025]
137.7

Indicate its recorded MOR agonist activity, percent [35S]GTPγS binding at the stated compound concentration; the compound in question is COc1c2c(cc3c1C(CC(=O)c1cccc(C(F)(F)F)c1)[N+](C)(C)CC3)OCO2 (stereo not drawn) [Compound B0006]
18.6

For the compound COCOc1ccc(C(=O)CC2c3c(cc4c(c3OC)OCO4)CC[N+]2(C)C)cc1C (stereo not drawn) [Compound B0041] , report MOR agonist activity, percent [35S]GTPγS binding at the stated compound concentration.
41.9

Fill in MOR agonist activity, percent [35S]GTPγS binding at the stated compound concentration for record COc1ccc(CCC(=O)CC2c3c(cc4c(c3OC)OCO4)CC[N+]2(C)C)cc1OC (stereo not drawn) [Compound B0042]
43.1

Fill in MOR agonist activity, percent [35S]GTPγS binding at the stated compound concentration for record COc1ccc(C(=O)CC2c3c(cc4c(c3OC)OCO4)CC[N+]2(C)C)cc1OC (stereo not drawn) [Compound B0026]
28.8

Please supply the value of reported MOR agonist activity, percent [35S]GTPγS binding at the stated compound concentration for the item COc1ccc(CC(=O)CC2c3c(cc4c(c3OC)OCO4)CC[N+]2(C)C)c(OC)c1 (stereo not drawn) [Compound B0029]
17.6

Identify measured MOR agonist activity, percent [35S]GTPγS binding at the stated compound concentration associated with COc1ccc(C(=O)CC2c3c(cc4c(c3OC)OCO4)CC[N+]2(C)C)cc1 (stereo not drawn) [Compound B0024]
20.2

In one line, give reported MOR agonist activity, percent [35S]GTPγS binding at the stated compound concentration of the entry COc1cc(CC(=O)CC2c3c(cc4c(c3OC)OCO4)CC[N+]2(C)C)cc(OC)c1OC (stereo not drawn) [Compound B0008] .
46.0
